target: EGFR on EGFR positive non-small cell lung cancer cells NCI-H1650 (UniProt P00533 25-1210); assay: cell-based or functional assay
Hi! Could you tag entries with H1650 CTG-3D EC50 below 0.9 µg/mL as criterion met, and those at or above as criterion not met? Much appreciated.

>  <Binder>
AbK-LB (antibody, human IgG1, kappa, V domains shown, synthon LB on reduced interchain cysteines; average DAR 1.8 per ADC) VH: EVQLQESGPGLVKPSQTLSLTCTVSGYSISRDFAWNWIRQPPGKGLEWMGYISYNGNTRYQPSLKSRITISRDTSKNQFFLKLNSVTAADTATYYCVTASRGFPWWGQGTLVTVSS VL: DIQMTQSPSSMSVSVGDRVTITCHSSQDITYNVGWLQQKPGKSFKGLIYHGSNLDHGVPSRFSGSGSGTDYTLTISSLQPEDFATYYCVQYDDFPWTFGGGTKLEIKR

>  <Classification>
criterion not met

$$$$
>  <Binder>
AbB-SR (antibody, human IgG1, kappa, V domains shown, synthon SR on reduced interchain cysteines; average DAR 2.1 per ADC) VH: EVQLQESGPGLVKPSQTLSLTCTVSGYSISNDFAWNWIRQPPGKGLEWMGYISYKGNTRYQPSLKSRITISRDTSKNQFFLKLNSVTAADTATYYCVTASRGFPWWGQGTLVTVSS VL: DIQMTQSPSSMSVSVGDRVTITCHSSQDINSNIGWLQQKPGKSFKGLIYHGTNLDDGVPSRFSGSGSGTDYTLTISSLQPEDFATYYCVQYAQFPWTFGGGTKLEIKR

>  <Classification>
criterion met

$$$$
>  <Binder>
AbA-KZ (antibody, human IgG1, kappa, V domains shown, synthon KZ on reduced interchain cysteines; average DAR 2 per ADC) VH: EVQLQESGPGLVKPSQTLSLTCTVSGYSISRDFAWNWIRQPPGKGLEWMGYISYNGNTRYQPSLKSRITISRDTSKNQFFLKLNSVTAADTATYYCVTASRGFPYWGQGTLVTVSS VL: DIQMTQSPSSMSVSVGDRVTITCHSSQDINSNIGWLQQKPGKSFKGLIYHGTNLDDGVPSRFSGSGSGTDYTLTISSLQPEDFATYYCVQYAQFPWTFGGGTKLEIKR

>  <Classification>
criterion not met

$$$$
>  <Binder>
AbK-XW (antibody, human IgG1, kappa, V domains shown, synthon XW on reduced interchain cysteines; average DAR 2.8 per ADC) VH: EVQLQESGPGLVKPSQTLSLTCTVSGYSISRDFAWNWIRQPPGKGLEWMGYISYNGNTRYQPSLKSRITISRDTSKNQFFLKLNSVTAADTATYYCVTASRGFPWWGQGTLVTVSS VL: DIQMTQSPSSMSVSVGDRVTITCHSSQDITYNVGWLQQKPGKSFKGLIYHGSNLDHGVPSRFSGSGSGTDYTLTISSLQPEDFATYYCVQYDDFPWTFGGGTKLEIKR

>  <Classification>
criterion not met

$$$$
>  <Binder>
AbK-WD (antibody, human IgG1, kappa, V domains shown, synthon WD on reduced interchain cysteines; average DAR 1.7 per ADC) VH: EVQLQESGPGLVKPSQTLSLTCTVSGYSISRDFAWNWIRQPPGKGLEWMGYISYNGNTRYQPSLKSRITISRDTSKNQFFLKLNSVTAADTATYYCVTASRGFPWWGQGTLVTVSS VL: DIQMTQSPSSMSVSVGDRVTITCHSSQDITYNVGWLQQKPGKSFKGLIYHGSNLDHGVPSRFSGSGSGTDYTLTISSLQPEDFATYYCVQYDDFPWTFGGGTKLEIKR

>  <Classification>
criterion not met

$$$$
>  <Binder>
AbB-TV (antibody, human IgG1, kappa, V domains shown, synthon TV on reduced interchain cysteines; average DAR 2.3 per ADC) VH: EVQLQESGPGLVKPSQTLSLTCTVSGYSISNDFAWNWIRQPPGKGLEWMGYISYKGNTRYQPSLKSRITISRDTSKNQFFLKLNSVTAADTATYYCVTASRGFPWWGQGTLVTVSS VL: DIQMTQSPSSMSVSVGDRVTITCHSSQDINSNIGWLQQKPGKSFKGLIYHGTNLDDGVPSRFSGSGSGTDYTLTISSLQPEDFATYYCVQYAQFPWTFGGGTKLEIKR

>  <Classification>
criterion met

$$$$
>  <Binder>
AbB-CZ (antibody, human IgG1, kappa, V domains shown, synthon CZ on reduced interchain cysteines; average DAR 3.5 per ADC) VH: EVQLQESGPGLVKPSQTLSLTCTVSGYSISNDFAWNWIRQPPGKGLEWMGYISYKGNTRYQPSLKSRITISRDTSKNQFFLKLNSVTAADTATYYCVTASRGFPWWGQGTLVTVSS VL: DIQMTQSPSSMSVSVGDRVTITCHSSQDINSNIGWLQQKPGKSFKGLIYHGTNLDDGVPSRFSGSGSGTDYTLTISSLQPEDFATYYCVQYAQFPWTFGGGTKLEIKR

>  <Classification>
criterion not met

$$$$
>  <Binder>
AbG-AAA (antibody, human IgG1, kappa, V domains shown, synthon AAA on reduced interchain cysteines; average DAR 1.9 per ADC) VH: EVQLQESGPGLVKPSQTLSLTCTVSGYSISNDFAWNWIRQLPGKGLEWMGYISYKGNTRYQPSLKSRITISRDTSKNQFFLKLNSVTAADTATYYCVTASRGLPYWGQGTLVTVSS VL: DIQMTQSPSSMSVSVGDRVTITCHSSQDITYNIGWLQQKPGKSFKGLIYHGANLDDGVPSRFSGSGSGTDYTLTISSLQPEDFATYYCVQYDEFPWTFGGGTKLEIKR

>  <Classification>
criterion met

$$$$
>  <Binder>
AbA-YY (antibody, human IgG1, kappa, V domains shown, synthon YY on reduced interchain cysteines; average DAR 2.2 per ADC) VH: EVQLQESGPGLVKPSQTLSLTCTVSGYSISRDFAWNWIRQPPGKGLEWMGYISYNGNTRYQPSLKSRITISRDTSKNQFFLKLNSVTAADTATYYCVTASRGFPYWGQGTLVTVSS VL: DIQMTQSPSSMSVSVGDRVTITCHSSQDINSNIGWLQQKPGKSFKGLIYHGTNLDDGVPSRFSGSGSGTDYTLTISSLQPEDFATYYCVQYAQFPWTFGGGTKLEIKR

>  <Classification>
criterion not met

$$$$
>  <Binder>
AbB-LB (antibody, human IgG1, kappa, V domains shown, synthon LB on reduced interchain cysteines; average DAR 1.8 per ADC) VH: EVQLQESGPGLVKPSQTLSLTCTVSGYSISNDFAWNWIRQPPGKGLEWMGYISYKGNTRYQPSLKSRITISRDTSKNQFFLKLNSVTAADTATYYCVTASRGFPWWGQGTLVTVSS VL: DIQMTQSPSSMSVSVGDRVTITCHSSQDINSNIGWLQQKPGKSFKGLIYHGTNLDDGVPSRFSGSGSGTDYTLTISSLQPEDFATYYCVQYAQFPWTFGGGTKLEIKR

>  <Classification>
criterion not met

$$$$
